Just for reference, patent US20240109930A1 is where these values come from.

Form field: IC50 (one value per entry).
biological target: human Gal-1 (hGal-1) (Homo sapiens, UniProt P09382, C131S/C17S/C43S/C61S/C89S); assay: Competitive binding assay: biotinylated hGal-1 binding to microplate-adsorbed asialofetuin (ASF); conditions: IC50 values from several measurements given as geomean
QUANTITY_NAME: IC50 (nM)

INSERT INTO measurements (compound, quantity_name, reported_result) VALUES
  ('CO[C@@H]1[C@@H](n2cc(-c3ccc(Cl)c(F)c3F)nn2)[C@@H](O)[C@@H](CO)O[C@@H]1Cc1cn([C@@H]2CCOC[C@@H]2F)nn1', 'IC50', 570),
  ('CO[C@@H]1[C@@H](n2cc(-c3ccc(Br)c(F)c3F)nn2)[C@@H](O)[C@@H](CO)O[C@@H]1Cc1cn(C2(C(F)F)COC2)nn1', 'IC50', 650),
  ('CO[C@@H]1[C@@H](n2cc(-c3ccc(Cl)c(F)c3F)nn2)[C@@H](O)[C@@H](CO)O[C@@H]1Cc1cn(C2(C(F)(F)F)CCC2)nn1', 'IC50', 620),
  ('CCC1(c2cn(C[C@H]3O[C@H](CO)[C@H](O)[C@H](n4cc(-c5ccc(F)c(F)c5F)nn4)[C@H]3OC)nn2)COC1', 'IC50', 470),
  ('CO[C@@H]1[C@@H](n2cc(-c3ccc(Cl)c(F)c3F)nn2)[C@@H](O)[C@@H](CO)O[C@@H]1Cc1cn([C@]2(C)CCO[C@@H]2C)nn1 (single isomer, unassigned) [Example 2.1.68.A]', 'IC50', 1100),
  ('CO[C@@H]1[C@@H](n2cc(-c3ccc(Cl)c(F)c3F)nn2)[C@@H](O)[C@@H](CO)O[C@@H]1Cc1cn([C@@H]2COC[C@@H]2F)nn1 (single isomer, unassigned) [Example 2.1.74.B]', 'IC50', 1620),
  ('CO[C@@H]1[C@@H](n2cc(-c3ccc(C)c(F)c3F)nn2)[C@@H](O)[C@@H](CO)O[C@@H]1Cn1cc(C2CCCC2)nn1', 'IC50', 5130),
  ('CO[C@@H]1[C@@H](n2cc(-c3ccc(C)c(F)c3F)nn2)[C@@H](O)[C@@H](CO)O[C@@H]1Cc1cn(C2(CO)CCC2)nn1', 'IC50', 2090),
  ('COC1=C(N2CC(c3ccc(Br)c(F)c3F)NN2)C(O)=C(CO)O[C@@H]1Cn1cc(C23CCC(NC(=O)OC(C)(C)C)(CC2)CC3)nn1 (stereo partly drawn)', 'IC50', 11300);
